Biological target: Cannabinoid receptor 2 (Homo sapiens, UniProt P34972)
Sequence (P34972 whole entry): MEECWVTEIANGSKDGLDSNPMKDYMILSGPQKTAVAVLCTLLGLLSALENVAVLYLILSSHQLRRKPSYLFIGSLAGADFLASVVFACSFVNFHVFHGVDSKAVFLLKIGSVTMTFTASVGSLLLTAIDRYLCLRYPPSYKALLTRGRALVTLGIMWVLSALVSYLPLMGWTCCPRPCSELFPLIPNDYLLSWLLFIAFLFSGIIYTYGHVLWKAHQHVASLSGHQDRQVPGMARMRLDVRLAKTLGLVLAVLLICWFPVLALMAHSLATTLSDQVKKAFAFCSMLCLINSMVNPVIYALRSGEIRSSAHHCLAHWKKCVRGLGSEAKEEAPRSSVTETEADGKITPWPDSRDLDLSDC
Test: Displacement of [3H]CP-55940 from human CB2 receptor expressed in HEK293 cells
Type: cell-based
Just so you know, the groups by Ki go like this: lo (below 0.004 µM), mid (0.004 µM to below 0.02 µM), hi (0.02 µM or more)

- MOLECULE: "CCCCCn1cc(C(=O)NC23CC4CC(CC(C4)C2)C3)c(=O)c2ccc(Cl)c(C)c21"
  STUDY SYSTEM: "Cannabinoid receptor 2 (Homo sapiens, UniProt P34972)"
  LABEL VALUE: "hi"
- MOLECULE: "CCCCCn1cc(C(=O)NC23CC4CC(CC(C4)C2)C3)c(=O)c2ccc([S+]([O-])c3ccccc3)cc21 (stereo not given)"
  STUDY SYSTEM: "Cannabinoid receptor 2 (Homo sapiens, UniProt P34972)"
  LABEL VALUE: "lo"
- MOLECULE: "CCCCCn1cc(C(=O)NC23CC4CC(CC(C4)C2)C3)c(=O)c2cc(C(F)(F)F)ccc21"
  STUDY SYSTEM: "Cannabinoid receptor 2 (Homo sapiens, UniProt P34972)"
  LABEL VALUE: "mid"
- MOLECULE: "CCCCCn1cc(C(=O)NC23CC4CC(CC(C4)C2)C3)c(=O)c2cc(Br)ccc21"
  STUDY SYSTEM: "Cannabinoid receptor 2 (Homo sapiens, UniProt P34972)"
  LABEL VALUE: "mid"
- MOLECULE: "CCCCCn1cc(C(=O)N[C@H](C)c2ccccc2)c(=O)c2ccc(F)cc21"
  STUDY SYSTEM: "Cannabinoid receptor 2 (Homo sapiens, UniProt P34972)"
  LABEL VALUE: "mid"

Textbook exercise: identify the category of the molecule given here, CCCCCn1cc(C(=O)NC23CC4CC(CC(C4)C2)C3)c(=O)c2cc(Oc3ccc(F)c(Cl)c3)ccc21 , according to its measured value. mid

====

Lab note: pKi readings collected with Cannabinoid receptor 1 (Homo sapiens, UniProt P21554) for the following compounds.
Sequence (P21554 whole entry): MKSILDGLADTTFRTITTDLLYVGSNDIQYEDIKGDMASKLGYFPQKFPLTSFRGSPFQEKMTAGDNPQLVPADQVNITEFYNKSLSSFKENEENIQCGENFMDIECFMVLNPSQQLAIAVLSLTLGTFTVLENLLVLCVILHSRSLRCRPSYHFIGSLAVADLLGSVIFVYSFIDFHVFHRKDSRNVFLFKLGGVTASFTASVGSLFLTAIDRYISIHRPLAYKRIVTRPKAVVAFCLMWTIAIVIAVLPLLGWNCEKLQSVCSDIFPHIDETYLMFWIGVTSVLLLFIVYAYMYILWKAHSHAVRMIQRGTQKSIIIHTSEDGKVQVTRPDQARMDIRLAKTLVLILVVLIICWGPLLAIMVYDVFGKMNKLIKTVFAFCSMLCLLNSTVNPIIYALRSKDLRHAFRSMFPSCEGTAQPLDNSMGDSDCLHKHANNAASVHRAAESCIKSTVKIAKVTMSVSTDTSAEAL
Note: pKi values are expressed as the negative base-10 logarithm of concentration in M.

Consider the following illustrative entries.
- COMPOUND: "CCCCCn1cc(C(=O)N[C@H](C)c2ccccc2)c(=O)c2ccc(F)cc21"
  pKi: 7.84
- COMPOUND: "CCCCCn1cc(C(=O)NC23CC4CC(CC(C4)C2)C3)c(=O)c2c(OC)ccc(OC)c21"
  pKi: 5.68
- COMPOUND: "CCCCCn1cc(C(=O)NC23CC4CC(CC(C4)C2)C3)c(=O)c2cc(C(F)(F)F)ccc21"
  pKi: 5.60

Could you now consider this next compound?
Please provide the recorded pKi for CCCCCn1cc(C(=O)NC23CC4CC(CC(C4)C2)C3)c(=O)c2ccc(S(=O)(=O)c3ccccc3)cc21 , tested on Cannabinoid receptor 1 (Homo sapiens, UniProt P21554). 8.21

====

Molecular target: Cannabinoid receptor 2 (Homo sapiens)
MEASURED PARAMETER: pKi
Note: pKi values are expressed as the negative base-10 logarithm of concentration in M.

Consider the following illustrative entries.
- MOLECULE SMILES: "C=CCCn1cc(C(=O)NC23CC4CC(CC(C4)C2)C3)c(=O)c2cc(Br)ccc21"
  NUMERIC VALUE: 7.62
- MOLECULE SMILES: "C=CCn1cc(C(=O)NC23CC4CC(CC(C4)C2)C3)c(=O)c2c(OC)ccc(OC)c21"
  NUMERIC VALUE: 8.04

GET /values?readout=pKi&item= CCCCCn1cc(C(=O)NC23CC4CC(CC(C4)C2)C3)c(=O)c2cc(Sc3ccccc3)ccc21 8.47

GET /values?readout=pKi&item= CCCCCn1cc(C(=O)NC23CC4CC(CC(C4)C2)C3)c(=O)c2ccccc21 8.33

====

Lab note: Ki readings collected with Cannabinoid receptor 1 (Homo sapiens) for the following compounds.
Numbers only here, please. The scale is nM.

Consider the following illustrative entries.
- COMPOUND: "CCCCCn1cc(C(=O)NC23CC4CC(CC(C4)C2)C3)c(=O)c2ccc(Sc3ccccc3)cc21"
  Ki, nM: 5.3
- COMPOUND: "CCCCCn1cc(C(=O)NC23CC4CC(CC(C4)C2)C3)c(=O)c2cc(/C=C/c3ccc(OC)cc3)ccc21"
  Ki, nM: 2630
- COMPOUND: "CCCCCn1cc(C(=O)NC23CC4CC(CC(C4)C2)C3)c(=O)c2cc(Oc3ccc(F)c(Cl)c3)ccc21"
  Ki, nM: 739
- COMPOUND: "CCCCCn1cc(C(=O)N[C@H](C)c2ccccc2)c(=O)c2ccc(OCC)cc21"
  Ki, nM: 29.7
- COMPOUND: "CCCCCn1cc(C(=O)NC23CC4CC(CC(C4)C2)C3)c(=O)c2cc(Sc3ccccc3)ccc21"
  Ki, nM: 640
- COMPOUND: "CCCCCn1cc(C(=O)NC23CC4CC(CC(C4)C2)C3)c(=O)c2ccc([S+]([O-])c3ccccc3)cc21 (stereo unspecified)"
  Ki, nM: 28

GET /values?readout=Ki&item= CCCCCn1cc(C(=O)NC23CC4CC(CC(C4)C2)C3)c(=O)c2cc(F)c(-n3cccc3)cc21 140

GET /values?readout=Ki&item= CCCCCn1cc(C(=O)NC23CC4CC(CC(C4)C2)C3)c(=O)c2ccc(F)cc21 30.5

GET /values?readout=Ki&item= CCCCCn1cc(C(=O)NC23CC4CC(CC(C4)C2)C3)c(=O)c2ccccc21 42.1

GET /values?readout=Ki&item= C=CCCn1cc(C(=O)NC23CC4CC(CC(C4)C2)C3)c(=O)c2cc(Br)ccc21 2680

GET /values?readout=Ki&item= CCCCCn1cc(C(=O)N[C@H](C)c2ccccc2)c(=O)c2ccc(N3CCCC3)cc21 160

GET /values?readout=Ki&item= CCCCCn1cc(C(=O)NC23CC4CC(CC(C4)C2)C3)c(=O)c2cc(Br)ccc21 996

GET /values?readout=Ki&item= C=CCCCn1cc(C(=O)NC23CC4CC(CC(C4)C2)C3)c(=O)c2cc(Br)ccc21 696

====

Target: Cannabinoid receptor 2 (Homo sapiens, UniProt P34972)
Entries whose Ki is below 20 nM take YES; entries at or above 20 nM take NO.

Known results for compounds:
- MOLECULE SMILES: "CCCCCn1cc(C(=O)N[C@H](C)c2ccccc2)c(=O)c2ccc(N3CCCC3)cc21"
  LABEL VALUE: "YES"
- MOLECULE SMILES: "CCCCCn1cc(C(=O)NC23CC4CC(CC(C4)C2)C3)c(=O)c2ccc(S(=O)(=O)c3ccccc3)cc21"
  LABEL VALUE: "YES"
- MOLECULE SMILES: "CCCCCn1cc(C(=O)NC23CC4CC(CC(C4)C2)C3)c(=O)c2cc(F)c(-n3cccc3)cc21"
  LABEL VALUE: "YES"
- MOLECULE SMILES: "CCCCCn1cc(C(=O)NC23CC4CC(CC(C4)C2)C3)c(=O)c2cc(/C=C/c3ccc(OC)cc3)ccc21"
  LABEL VALUE: "NO"
- MOLECULE SMILES: "CCCCCn1cc(C(=O)NC23CC4CC(CC(C4)C2)C3)c(=O)c2c(OC)ccc(OC)c21"
  LABEL VALUE: "NO"

I wonder whether CCCCCn1cc(C(=O)NC23CC4CC(CC(C4)C2)C3)c(=O)c2ccc(Sc3ccccc3)cc21 has Ki below 20 nM. Can you tell? YES

I wonder whether CCCCCn1cc(C(=O)N[C@H](C)c2ccccc2)c(=O)c2ccc(OCC)cc21 has Ki below 20 nM. Can you tell? NO

I wonder whether CCCCCn1cc(C(=O)NC23CC4CC(CC(C4)C2)C3)c(=O)c2ccc(F)cc21 has Ki below 20 nM. Can you tell? YES

I wonder whether C=CCCCn1cc(C(=O)NC23CC4CC(CC(C4)C2)C3)c(=O)c2cc(Br)ccc21 has Ki below 20 nM. Can you tell? YES

I wonder whether CCCCCn1cc(C(=O)NC23CC4CC(CC(C4)C2)C3)c(=O)c2cc(-c3ccccc3)ccc21 has Ki below 20 nM. Can you tell? YES

====

pKi: −log10 of the molar value.
Lab note: pKi readings collected with Cannabinoid receptor 1 (Homo sapiens, UniProt P21554) for the following compounds.

Consider the following illustrative entries.
- MOLECULE SMILES: "CCCCCn1cc(C(=O)NC23CC4CC(CC(C4)C2)C3)c(=O)c2ccc(Cl)c(C)c21"
  STUDY SYSTEM: "Cannabinoid receptor 1 (Homo sapiens, UniProt P21554)"
  pKi: "< 5.00"
- MOLECULE SMILES: "CCCCCn1cc(C(=O)NC23CC4CC(CC(C4)C2)C3)c(=O)c2cc(-c3ccccc3)ccc21"
  STUDY SYSTEM: "Cannabinoid receptor 1 (Homo sapiens, UniProt P21554)"
  pKi: "< 5.00"

Could you now consider this next compound?
Please provide the recorded pKi for C=CCn1cc(C(=O)NC23CC4CC(CC(C4)C2)C3)c(=O)c2c(OC)ccc(OC)c21 , tested on Cannabinoid receptor 1 (Homo sapiens, UniProt P21554). < 5.00
